- ASSAY_TEXT: Cycloheximide Counterscreen for Small Molecule Inhibitors of Shiga Toxin; also: read at 38.3 µM for the half of the compounds with a filed dose; 0% is about no effect
- TEST_PARAMETERS: cell reporter, cycloheximide protein synthesis inhibition counterscreen; active compounds read high
The campaign covered roughly 300,000 compounds. About 37,000 (12%) were called active. Shown is part of a subset that was picked to be rich in actives.
In this section, each of the compounds is paired with its reported max response.
Numbers only here, please. The scale is %.

COMPOUND	PROPERTY_MEASURED	ASSAY_RESULT
S=c1[nH]nc(-c2cccs2)n1/N=C/c1cccs1	max response	8.89

Exam item: Name the recorded max response of the item Cc1ccc(OC(=O)c2cc3ccccc3o2)cc1 in your answer.
Marked response: 13.6

Exam item: Name the recorded max response of the item O=C(O)c1ccc2c(=O)n3c(nc2c1)/C(=C/c1ccc(Cl)c([N+](=O)[O-])c1)CC3 in your answer.
Marked response: -1.06

Exam item: Name the recorded max response of the item C=CCN1C2CCCC1CC(NC(=S)Nc1cccc(OC)c1)C2 (stereo unspecified) in your answer.
Marked response: -2.67

Exam item: Name the recorded max response of the item NS(=O)(=O)c1ccc(NC(=S)Nc2ccc(Br)c(Cl)c2)cc1 in your answer.
Marked response: -1.56

Exam item: Name the recorded max response of the item COc1ccc(OC)c(NC(=S)N2CCc3ccccc3C2)c1 in your answer.
Marked response: 9.77

Exam item: Name the recorded max response of the item O=C(CC1SC(=Nc2ccccc2)N(Cc2ccccn2)C1=O)Nc1cccc(Cl)c1 (stereo unspecified) in your answer.
Marked response: 14.9

Exam item: Name the recorded max response of the item COc1ccc(C2=NOC3(CC(=O)N(c4ccc(C)cc4)C3=O)C2)cc1 (stereo unspecified) in your answer.
Marked response: 14.2

Exam item: Name the recorded max response of the item O=c1[nH]c(SCc2ccccc2)nnc1-c1ccccc1 in your answer.
Marked response: 11

Exam item: Name the recorded max response of the item O=C(NCCc1ccc2c(c1)OCCO2)c1cc2ccccc2o1 in your answer.
Marked response: 8.84

Exam item: Name the recorded max response of the item Cc1ccc(NC(=O)c2cc3ccccc3o2)cc1 in your answer.
Marked response: 43.9

Exam item: Name the recorded max response of the item CCOC(=O)N1CCC(N2Cc3cccc(C(=O)Nc4ccc(S(=O)(=O)N(CC)CC)cc4)c3C2=O)CC1 in your answer.
Marked response: -7.45

Exam item: Name the recorded max response of the item O=C(c1cnn(-c2ccc(Cl)cc2)c1)c1ccccc1O in your answer.
Marked response: 60.1

Exam item: Name the recorded max response of the item CN1CCN(Cc2c(C(=O)N3CCc4ccccc4C3)nc3ccc(Cl)cn23)CC1 in your answer.
Marked response: -1.69

Exam item: Name the recorded max response of the item O=C(CN1CCC(NC(=O)C2CC2)CC1)Nc1ccccc1[N+](=O)[O-] in your answer.
Marked response: 7

Exam item: Name the recorded max response of the item Cc1ccc(SCc2c(C(=O)N/N=C/c3cccnc3)nnn2-c2nonc2N)cc1 in your answer.
Marked response: 2.02

Exam item: Name the recorded max response of the item COc1ccc2c(c1)CCc1c(C(=O)N3CCCC3)noc1-2 in your answer.
Marked response: 36.2

Exam item: Name the recorded max response of the item COc1ccc(OCC(=O)N2CCOCC2)cc1 in your answer.
Marked response: 9.77

Exam item: Name the recorded max response of the item Fc1ccc(-c2csc(-c3ccc(C4SCCS4)cc3)n2)cc1F in your answer.
Marked response: 8.6

Exam item: Name the recorded max response of the item O=c1o[nH]c(-c2ccccc2)c1N=Nc1c(F)cccc1Cl in your answer.
Marked response: 6.23

Exam item: Name the recorded max response of the item Cc1ccc(CSc2nc(-c3ccccc3)c(C#N)c(=O)[nH]2)cc1 in your answer.
Marked response: -11.1

Exam item: Name the recorded max response of the item O=S(=O)(Nc1cccc(-n2cnnn2)c1)c1cnc(Cl)c(Cl)c1 in your answer.
Marked response: 4.36

Exam item: Name the recorded max response of the item COc1cc(OC)cc(C(=O)N[C@H](C(=O)OCC(=O)NC(C)c2ccccc2)C(C)C)c1 (stereo partly specified) in your answer.
Marked response: 6.33

Exam item: Name the recorded max response of the item Clc1ccc(-c2csc(-c3ccncc3)n2)cc1 in your answer.
Marked response: 49.1

Exam item: Name the recorded max response of the item C/C(=N\NC(=S)Nc1ccc(C)cc1)c1cc2ccccc2o1 in your answer.
Marked response: 20.6

Exam item: Name the recorded max response of the item Cc1ccc(C)c(-n2c(SCC(=O)O)nc3sc4c(c3c2=O)CCCC4)c1 in your answer.
Marked response: -4.29

Data credit: PubChem BioAssay AID2314
